# measured.on: Fatty acid synthase (Homo sapiens)
# Sequence (P49327 whole entry, the tested form may be a part): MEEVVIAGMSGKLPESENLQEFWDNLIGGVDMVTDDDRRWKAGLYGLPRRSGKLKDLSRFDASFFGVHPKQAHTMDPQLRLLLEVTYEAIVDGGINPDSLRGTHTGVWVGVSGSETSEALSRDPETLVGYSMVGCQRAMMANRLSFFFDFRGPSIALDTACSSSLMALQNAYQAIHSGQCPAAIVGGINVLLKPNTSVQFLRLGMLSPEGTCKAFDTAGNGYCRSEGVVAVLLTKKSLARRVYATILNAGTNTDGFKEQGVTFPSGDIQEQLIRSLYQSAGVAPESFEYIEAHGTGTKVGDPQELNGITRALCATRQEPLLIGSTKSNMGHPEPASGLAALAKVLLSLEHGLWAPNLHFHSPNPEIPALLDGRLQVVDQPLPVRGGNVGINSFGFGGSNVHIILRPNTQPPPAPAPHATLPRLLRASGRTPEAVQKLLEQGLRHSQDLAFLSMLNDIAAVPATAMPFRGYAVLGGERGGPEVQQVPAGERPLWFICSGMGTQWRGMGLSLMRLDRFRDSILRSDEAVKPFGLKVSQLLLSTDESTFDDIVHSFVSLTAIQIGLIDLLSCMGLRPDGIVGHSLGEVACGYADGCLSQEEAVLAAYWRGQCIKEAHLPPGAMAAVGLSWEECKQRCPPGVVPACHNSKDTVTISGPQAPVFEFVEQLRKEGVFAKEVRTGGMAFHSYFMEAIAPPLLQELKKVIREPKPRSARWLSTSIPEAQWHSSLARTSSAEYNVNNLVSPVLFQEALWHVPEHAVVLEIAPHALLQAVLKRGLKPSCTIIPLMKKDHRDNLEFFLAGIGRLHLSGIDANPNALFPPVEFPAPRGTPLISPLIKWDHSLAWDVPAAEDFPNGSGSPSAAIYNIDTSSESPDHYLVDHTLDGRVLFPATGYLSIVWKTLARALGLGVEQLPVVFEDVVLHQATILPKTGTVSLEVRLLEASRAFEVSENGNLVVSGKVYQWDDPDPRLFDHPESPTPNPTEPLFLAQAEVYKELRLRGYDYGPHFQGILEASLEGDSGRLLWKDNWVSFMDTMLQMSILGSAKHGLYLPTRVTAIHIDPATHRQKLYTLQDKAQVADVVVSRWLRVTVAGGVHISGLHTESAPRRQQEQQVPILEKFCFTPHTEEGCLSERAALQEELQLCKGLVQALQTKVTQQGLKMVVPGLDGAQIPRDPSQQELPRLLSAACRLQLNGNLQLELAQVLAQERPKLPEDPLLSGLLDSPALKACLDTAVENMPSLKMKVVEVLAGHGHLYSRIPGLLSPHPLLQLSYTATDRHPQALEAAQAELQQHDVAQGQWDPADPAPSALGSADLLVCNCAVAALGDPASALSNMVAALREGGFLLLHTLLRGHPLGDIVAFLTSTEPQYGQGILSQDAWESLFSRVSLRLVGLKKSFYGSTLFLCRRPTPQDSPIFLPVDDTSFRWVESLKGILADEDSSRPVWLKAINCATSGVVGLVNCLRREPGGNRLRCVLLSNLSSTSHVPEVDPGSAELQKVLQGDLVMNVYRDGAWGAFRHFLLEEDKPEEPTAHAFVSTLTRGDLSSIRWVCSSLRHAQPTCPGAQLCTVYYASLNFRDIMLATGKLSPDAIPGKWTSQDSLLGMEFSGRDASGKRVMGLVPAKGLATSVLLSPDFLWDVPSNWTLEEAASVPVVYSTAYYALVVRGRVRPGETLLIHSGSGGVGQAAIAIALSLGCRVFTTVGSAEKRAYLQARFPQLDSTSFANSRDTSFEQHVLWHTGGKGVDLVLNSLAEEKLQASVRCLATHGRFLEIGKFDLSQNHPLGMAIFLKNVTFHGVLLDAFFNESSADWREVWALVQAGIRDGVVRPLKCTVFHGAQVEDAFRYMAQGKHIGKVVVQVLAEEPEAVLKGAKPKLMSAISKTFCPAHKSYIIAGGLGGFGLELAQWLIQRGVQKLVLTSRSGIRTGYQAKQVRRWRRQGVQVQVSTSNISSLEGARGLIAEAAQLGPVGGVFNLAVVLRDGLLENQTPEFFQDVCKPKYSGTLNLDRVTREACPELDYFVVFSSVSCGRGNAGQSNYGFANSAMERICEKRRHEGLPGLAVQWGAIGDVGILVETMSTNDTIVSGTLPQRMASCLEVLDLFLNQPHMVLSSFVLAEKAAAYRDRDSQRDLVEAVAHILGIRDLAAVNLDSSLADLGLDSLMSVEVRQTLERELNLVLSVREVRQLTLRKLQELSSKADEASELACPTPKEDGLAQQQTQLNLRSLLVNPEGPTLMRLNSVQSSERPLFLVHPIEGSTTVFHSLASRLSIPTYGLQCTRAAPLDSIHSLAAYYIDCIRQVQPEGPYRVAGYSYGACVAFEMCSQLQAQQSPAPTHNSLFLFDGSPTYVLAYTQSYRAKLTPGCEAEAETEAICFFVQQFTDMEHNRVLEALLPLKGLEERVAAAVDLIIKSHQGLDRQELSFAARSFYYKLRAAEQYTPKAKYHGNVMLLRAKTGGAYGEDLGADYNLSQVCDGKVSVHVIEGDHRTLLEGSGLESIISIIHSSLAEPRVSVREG
# experiment: FAS thioesterase domain inhibitors, dose response, biochemical, endpoint fluorescence intensity, uHTS hits (AID 624327);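 note: fluorescence from hydrolysis of an O-methyl fluorescein acyl ester substrate by the enzyme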
# Type: functional
The source made the active and inactive calls.
property.label: IC50

Look over these answered cases.
N#Cc1c(-c2ccccc2)c(-c2ccccc2)nn(CC(=O)NNC(=O)Nc2ccc(Cl)cc2)c1=O
3.55 µM (active)
CC(=O)N1N=C(c2ccc(Br)cc2)CC1c1cccc([N+](=O)[O-])c1 (configuration not stated)
7.1 µM (active)
O=Cc1s/c(=N\S(=O)(=O)c2ccccc2)n(CCCCl)c1Cl
6.11 µM (active)
CN(CCO)c1cc(Sc2nc3ccccc3s2)c2nonc2c1[N+](=O)[O-]
2.32 µM (active)
CC(C)c1ccc(CCNC(=O)c2ccc([N+](=O)[O-])cc2)cc1
1.51 µM (active)
COc1ccc([C@@H]2[C@@H]3C(=O)N(C(C)(C)C)C(=O)[C@@H]3[C@]3(Cc4ccc(Cl)cc4)C(=O)N(c4ccc(Br)cc4)C(=O)N23)cc1
11.5 µM (active)

Next molecule, IC50 to be filled in.
# input molecule: O=C(CCCc1ccccc1)Nc1cccc([N+](=O)[O-])c1 ; wanted: its IC50
7.58 µM (active)

====

# measured.on: Mu-type opioid receptor (Homo sapiens)
# Sequence (P35372 whole entry): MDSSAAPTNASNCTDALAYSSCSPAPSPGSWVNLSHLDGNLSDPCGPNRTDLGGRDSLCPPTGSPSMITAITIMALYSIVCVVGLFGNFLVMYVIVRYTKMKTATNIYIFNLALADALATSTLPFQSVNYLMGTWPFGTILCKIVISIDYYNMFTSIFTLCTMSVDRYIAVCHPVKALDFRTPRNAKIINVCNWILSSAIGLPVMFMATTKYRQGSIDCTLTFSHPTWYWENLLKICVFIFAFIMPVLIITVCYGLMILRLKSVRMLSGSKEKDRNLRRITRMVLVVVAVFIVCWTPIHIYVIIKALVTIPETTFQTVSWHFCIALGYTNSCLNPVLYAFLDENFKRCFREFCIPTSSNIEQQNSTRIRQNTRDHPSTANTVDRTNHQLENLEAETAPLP
# experiment: Counterscreen for agonists of heterodimerization of the mu 1 (OPRM1) and delta 1 (OPRD1) opioid receptors: Luminescence-based cell-based high throughput dose response assay to identify agonists of OPRM1 homodimerization.
# Format: functional
Activity calls are given as the source filed them.
Entries annotated with measured EC50

Look over these answered cases.
O=C(N[C@H]1C/C=C\C[C@H](CC(=O)N(CCO)Cc2ccccc2)C(=O)N[C@H](Cc2c[nH]c3ccccc23)COC1=O)OCC1c2ccccc2-c2ccccc21
> 92.5 µM (inactive)
CC(=O)Nc1ccc(S(=O)(=O)NC2=C(N3CCN(Cc4ccccc4)CC3)C(=O)c3ccccc3C2=O)cc1
> 92.4 µM (inactive)

Next compound, EC50 to be filled in.
# input compound: CCOC(=O)C1(CC2CCCCO2)CCN(Cc2nc(-c3cccs3)oc2C)CC1 (configuration not stated) ; wanted: its EC50
> 92.5 µM (inactive)

====

# measured.on: Short transient receptor potential channel 4 (Mus musculus, UniProt Q9QUQ5)
# experiment: mouse TRPC4 channel activators, dose response, cell-based, HEK293 TRPC4/mu-opioid, Fluo-4 calcium (AID 434937)
# Assay type: functional
Active and inactive are the calls of the source.
Entries annotated with measured EC50

# input compound: CC1CN(C)C(C)c2c1oc1ccc(N)cc21 (stereo not drawn) ; wanted: its EC50
841 nM (active)

# input compound: COc1ccc(C(=O)C2CCCN(C3CSCCSC3)C2)cc1OC (stereo not drawn) ; wanted: its EC50
944 nM (active)

# input compound: O=[N+]([O-])c1ccc(N2CCNCC2)cc1NC1CC1 ; wanted: its EC50
168 nM (active)

# input compound: CN(CCc1ccccn1)C(=O)CC1C(=O)NCCN1Cc1ccccc1C(F)(F)F (stereo not drawn) ; wanted: its EC50
5960 nM (active)

# input compound: C=CCn1c(/N=C/c2ccc(N(C)C)cc2)nc2ccccc21 ; wanted: its EC50
6680 nM (active)

# input compound: CCCN(CCC)CCNC(=O)CCC(=O)Nc1ccc2nc(N3CCOCC3)cc(C)c2c1 ; wanted: its EC50
473 nM (active)

# input compound: CCN(CC)CCSc1nc2cc(OC)ccc2[nH]1 ; wanted: its EC50
668 nM (active)

# input compound: COc1ccc(-c2nn(-c3ccccc3C)cc2CNCc2cccnc2)cc1F ; wanted: its EC50
3760 nM (active)

====

Entries annotated with measured EC50
# measured.on: Heat shock factor protein 1 (Mus musculus)
# Sequence (P38532 whole entry): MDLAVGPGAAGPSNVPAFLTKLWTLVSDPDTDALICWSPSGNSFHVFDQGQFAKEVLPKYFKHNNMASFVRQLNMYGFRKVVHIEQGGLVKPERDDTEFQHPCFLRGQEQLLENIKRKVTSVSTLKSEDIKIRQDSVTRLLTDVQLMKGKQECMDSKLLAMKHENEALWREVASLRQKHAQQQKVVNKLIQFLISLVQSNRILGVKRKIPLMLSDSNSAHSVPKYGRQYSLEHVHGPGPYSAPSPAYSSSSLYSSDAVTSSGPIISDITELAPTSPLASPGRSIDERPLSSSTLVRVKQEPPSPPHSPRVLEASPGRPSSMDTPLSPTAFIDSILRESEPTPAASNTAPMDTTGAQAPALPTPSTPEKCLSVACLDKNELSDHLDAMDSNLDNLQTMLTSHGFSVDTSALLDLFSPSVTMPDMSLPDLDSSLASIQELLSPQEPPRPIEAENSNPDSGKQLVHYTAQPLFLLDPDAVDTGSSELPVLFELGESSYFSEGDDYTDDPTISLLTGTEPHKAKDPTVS
# experiment: inhibition of MG132-induced HSE-luciferase signal, confirmation, cell-based, NIH3T3, luminescence, dose retest (AID 2382);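 note: NIH3T3 fibroblasts with HSF1-driven luciferase reporter stressed by proteasome inhibitor MG132; luminescence from HSF1-driven luciferase expression after 8 hours of MG132 stress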
# Type: functional
Active and inactive are the calls of the source.

# query: EC50 | item COc1ccc(CNC(=O)c2nnn(CC(=O)Nc3cc(C)cc(C)c3)c2N)cc1 | system: Heat shock factor protein 1 (Mus musculus)
> 195 µM (not active)

# query: EC50 | item COc1ccc(S(=O)(=O)N2CCCC2)cc1C(C)C | system: Heat shock factor protein 1 (Mus musculus)
> 195 µM (not active)

# query: EC50 | item Cc1ccc2nc(NC(=O)CSCC(=O)OCC(=O)c3ccccc3)sc2c1 | system: Heat shock factor protein 1 (Mus musculus)
1.05 µM (active)

# query: EC50 | item O=C(Nc1nncs1)c1ccc(F)c(S(=O)(=O)N2CCCCC2)c1 | system: Heat shock factor protein 1 (Mus musculus)
39.5 µM (active)

# query: EC50 | item O=C(Nc1cccc(Cl)c1)c1ccc(S(=O)(=O)NCC2CCCO2)cc1 (stereo unspecified) | system: Heat shock factor protein 1 (Mus musculus)
> 195 µM (not active)

# query: EC50 | item Cc1ccc2nc(N3CCN(Cc4nnnn4Cc4ccccc4)CC3)c(C#N)cc2c1 | system: Heat shock factor protein 1 (Mus musculus)
> 195 µM (not active)

# query: EC50 | item Cc1ccc(C(=O)NCCn2cc(SCC(=O)N3CCOCC3)c3ccccc32)cc1 | system: Heat shock factor protein 1 (Mus musculus)
> 195 µM (not active)

# query: EC50 | item C=CCc1c(C)nc2c(-c3ccccc3)cnn2c1N1CCOCC1 | system: Heat shock factor protein 1 (Mus musculus)
> 195 µM (not active)

====

# measured.on: UniProt:P05186
# Sequence (P05186 whole entry): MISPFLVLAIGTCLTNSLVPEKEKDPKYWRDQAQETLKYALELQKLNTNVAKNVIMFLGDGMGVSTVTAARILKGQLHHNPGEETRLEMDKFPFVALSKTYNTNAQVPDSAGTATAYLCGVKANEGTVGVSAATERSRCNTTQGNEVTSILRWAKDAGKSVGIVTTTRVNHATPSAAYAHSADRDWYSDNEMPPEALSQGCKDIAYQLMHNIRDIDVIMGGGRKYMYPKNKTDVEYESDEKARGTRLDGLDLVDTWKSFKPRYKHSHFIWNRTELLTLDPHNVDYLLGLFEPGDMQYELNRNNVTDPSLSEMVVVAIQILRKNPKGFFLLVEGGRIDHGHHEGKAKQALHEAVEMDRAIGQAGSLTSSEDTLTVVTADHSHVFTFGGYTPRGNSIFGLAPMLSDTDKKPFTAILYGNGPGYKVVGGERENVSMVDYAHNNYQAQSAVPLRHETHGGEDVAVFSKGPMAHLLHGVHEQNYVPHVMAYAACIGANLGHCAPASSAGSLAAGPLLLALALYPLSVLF
# experiment: human TNAP enzyme inhibitors, SAR follow-up, biochemical, luminescent, dose response (AID 1056)
The source made the active and inactive calls.
Entries annotated with measured IC50

Look over these answered cases.
O=C(Cn1cnc2ccccc21)c1ccc(O)c(O)c1
14 µM (active)
O=C(CSc1nc2ccccc2o1)c1ccc(O)c(O)c1
4.15 µM (active)
OCCSc1n[nH]c(-c2ccccc2)n1
16.2 µM (active)
COc1ccccc1-c1nnc(SC)[nH]1
7.95 µM (active)

Next molecule, IC50 to be filled in.
# query: IC50 | item COc1ccc(-c2nnc(SCC(=O)c3ccc(O)c(O)c3)n2-c2ccccc2)cc1 | system: UniProt:P05186
> 100 µM (inactive)

====

# measured.on: Protein skinhead-1 (Caenorhabditis elegans, UniProt P34707)
# Sequence (P34707 whole entry): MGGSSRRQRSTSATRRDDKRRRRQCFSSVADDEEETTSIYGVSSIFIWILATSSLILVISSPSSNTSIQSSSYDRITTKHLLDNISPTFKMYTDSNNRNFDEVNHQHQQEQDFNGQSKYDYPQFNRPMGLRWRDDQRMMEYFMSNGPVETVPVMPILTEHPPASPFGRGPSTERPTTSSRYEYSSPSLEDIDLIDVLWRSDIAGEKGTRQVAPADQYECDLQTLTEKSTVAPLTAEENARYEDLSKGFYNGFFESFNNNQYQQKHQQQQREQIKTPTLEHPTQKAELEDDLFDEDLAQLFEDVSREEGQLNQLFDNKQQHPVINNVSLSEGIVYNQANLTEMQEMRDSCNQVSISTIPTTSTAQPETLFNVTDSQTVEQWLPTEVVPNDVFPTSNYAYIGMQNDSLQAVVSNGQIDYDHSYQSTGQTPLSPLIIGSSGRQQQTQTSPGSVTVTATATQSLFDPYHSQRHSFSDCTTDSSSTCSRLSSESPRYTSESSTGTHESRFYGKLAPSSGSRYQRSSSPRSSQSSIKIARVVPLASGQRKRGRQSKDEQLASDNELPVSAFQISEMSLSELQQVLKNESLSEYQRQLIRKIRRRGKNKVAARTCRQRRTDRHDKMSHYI
# Type: functional
Activity calls are given as the source filed them.
Assign a class; possible classes are 1.0 = active, 0.0 = inactive

Outcome? Oc1cccc(/C=C/c2ccc3cccc(O)c3n2)c1
0.0

Outcome? O=C(Nc1nccs1)c1ccc(-c2ccc(F)cc2)o1
0.0

Outcome? O=c1c2ccccc2nnn1Cc1ccc(Br)cc1
0.0

Outcome? O=C(C=Cc1ccccc1)CC(c1ccccc1)N1CCOCC1 (stereo unspecified)
1.0

Outcome? CC(=O)Nc1ccc(S(=O)(=O)N(C)CC(=O)NNC(=O)c2cccs2)cc1
0.0

Outcome? CN(C)c1ccc(/C=C/c2ccc3ccccc3n2)cc1
0.0

====

# measured.on: Voltage-dependent T-type calcium channel subunit alpha-1H (Homo sapiens)
# Assay type: functional
Calls of active or inactive are those of the source.
property.label: EC50

Cc1cc2cc(CNC(=O)c3ccc(Br)o3)ccc2[nH]1
10.1 µM (active)

# input compound: Cc1cccc(-c2nc(C[S+]([O-])CC(=O)NCCCSC3CCCCC3)c(C)o2)c1 (stereo not given) ; wanted: its EC50
3.94 µM (active)

# input compound: COc1ccc(S(=O)(=O)N2CCN(c3ccc(C)cc3C)CC2)cc1OC ; wanted: its EC50
9.63 µM (active)

# input compound: O=C(COC(=O)CCc1ccc(S(=O)(=O)N2CCCCC2)cc1)Nc1ccc2c(c1)OCO2 ; wanted: its EC50
26.4 µM (active)

# input compound: CC(C)(C)n1nnnc1CN(Cc1ccc(F)cc1)Cc1ccco1 ; wanted: its EC50
6.27 µM (active)

====

Entries annotated with measured EC50
# measured.on: UniProt:P9WHJ3
# experiment: Fluorescence Cell-Free Homogeneous Dose Retest to Identify Inhibitors of RecA-Intein Splicing Activity. [Related pubchem assays (depositor defined):AID2097, AID2223, AID489010, AID492950]
# Type: functional
Active and inactive are the calls of the source.

COc1cc(/C=C2/C(=O)N(c3cccc(Br)c3)N=C2C)cc(OC)c1O
1.6 µM (active)
CS(=O)(=O)C1=NN2C(=N)/C(=C\c3ccc(OC(=O)c4ccco4)cc3)C(=O)N=C2S1
16.8 µM (active)
Oc1ccc(/C(Cc2ccc3ccccc3n2)=N\Nc2ccccc2)c(O)c1
13.6 µM (active)
CN(CCO)c1cc(Sc2nc3ccccc3s2)c2nonc2c1[N+](=O)[O-]
0.49 µM (active)

# input compound: CCOc1cc(C2C(C#N)=C(N)Oc3[nH]nc(C)c32)ccc1OCCN1CCOCC1 (stereo not given) ; wanted: its EC50
4.45 µM (active)

====

Entries annotated with measured AC50
# measured.on: UniProtKB O75030
# experiment: TRPM1 promoter luciferase signal decrease, dose response, MITF inhibitor project, cell-based, SK-MEL-5, cherry-picked, set 3 (AID 493073);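 note: SK-MEL-5 melanoma cells with luciferase driven by the MITF target TRPM1 promoter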
# Format: functional
Active and inactive are the calls of the source.

CCc1cc[n+](C2=C([N-]S(=O)(=O)c3cccs3)C(=O)c3ccccc3C2=O)cc1
1.15 µM (active)
c1ccc2cc3c(NCCN4CCOCC4)ccnc3cc2c1
2.91 µM (active)

# query: AC50 | item Cc1ccc2nc(NC(=O)CSCC(=O)OCC(=O)c3ccccc3)sc2c1 | system: UniProtKB O75030
5.78 µM (active)

# query: AC50 | item CCCCCn1c(=O)c(C(=O)Nc2cnccn2)c(O)c2ccccc21 | system: UniProtKB O75030
5.93 µM (active)

# query: AC50 | item COc1ccc(-c2cc3c(nn2)-c2ccccc2C3=O)cc1 | system: UniProtKB O75030
4.22 µM (active)
